- Test system: SK-BR-3
- ASSAY NAME: Cytotoxicity against human SKBR3 cells assessed as cell viability at 50 uM after 72 hrs by MTS assay
- Assay type: functional
- ASSAY CONDITIONS: SK-BR-3, 72 h, read-out: Activity
ENDPOINT LABEL: viability at 50 µM (%)
// units = %; emit number, no label

Exam item: Look up viability at 50 µM with SK-BR-3 for this molecule: O=S1(=O)COC[C@@H](COCc2ccc(F)cc2)N1Cc1ccccc1
Marked response: 99

Exam item: Form field: viability at 50 µM recorded for O=S1(=O)COC[C@H](COCc2ccc(-c3ccc(CBr)cc3)cc2)N1 with SK-BR-3 (enter value)
Marked response: 18

Exam item: GET /values?readout=viability at 50 µM&system=SK-BR-3&item= CN1[C@H](COCc2ccc(-c3ccccc3)cc2)COCS1(=O)=O
Marked response: 61

Exam item: Form: Entry = CN1[C@H](COCc2ccc3ccccc3c2)COCS1(=O)=O | System = SK-BR-3 | viability at 50 µM = ____
Marked response: 74

Exam item: Under SK-BR-3: viability at 50 µM value of CCCCCCCC/C=C\CCCCCCCCOC[C@H]1COCS(=O)(=O)N1Cc1ccccc1 ?
Marked response: 82

Exam item: Please provide the recorded viability at 50 µM for O=S1(=O)COC[C@H](COCc2ccccc2)N1Cc1ccccc1 , tested on SK-BR-3.
Marked response: 87

Exam item: For SK-BR-3, provide viability at 50 µM of CCCCCCCC/C=C\CCCCCCCCOC[C@@H]1COCS(=O)(=O)N1Cc1ccccc1 please.
Marked response: 100

Exam item: Tell me reported viability at 50 µM for O=S1(=O)COC[C@H](COCc2ccccc2)N1 , tested with SK-BR-3.
Marked response: 51

Exam item: Item O=S1(=O)COC[C@@H](COCc2ccc(-c3ccccc3)cc2)N1 with SK-BR-3 - viability at 50 µM?
Marked response: 44

----------
What viability at 6.25 µM was measured for each of the following?
- Tested on: SK-BR-3
- ASSAY NAME: Cytotoxicity against human SKBR3 cells assessed as cell viability at 6.25 uM after 72 hrs by MTS assay
- Assay type: functional
- ASSAY CONDITIONS: SK-BR-3, 72 h, read-out: Activity
// return numeric value only (unit: %, not printed)

Exam item: Fill in the blank: the reported viability at 6.25 µM of CN1[C@H](COCc2ccc3ccccc3c2)COCS1(=O)=O is ____.
Marked response: 81

Exam item: Would you kindly share the measured viability at 6.25 µM for CCCCCCCC/C=C\CCCCCCCCOC[C@@H]1COCS(=O)(=O)N1C ?
Marked response: 72

Exam item: Given the compound O=C(OC[C@@H]1COCS(=O)(=O)N1Cc1ccccc1)c1ccccc1 , what is its reported viability at 6.25 µM?
Marked response: 81

Exam item: Give the measured viability at 6.25 µM of O=S1(=O)COC[C@@H](COCc2ccc(-c3ccccc3)cc2)N1 .
Marked response: 75

Exam item: Query: viability at 6.25 µM; subject: CCCCCCCC/C=C\CCCCCCCCOC[C@@H]1COCS(=O)(=O)N1Cc1ccccc1
Marked response: 100

Exam item: Item O=S1(=O)COC[C@@H](COCc2ccc(F)cc2)N1Cc1ccccc1 has what recorded viability at 6.25 µM?
Marked response: 93

Exam item: viability at 6.25 µM for O=S1(=O)COC[C@@H](COCc2ccc(-c3ccc(CBr)cc3)cc2)N1 ?
Marked response: 66

Exam item: Record request: viability at 6.25 µM value, item CN1[C@H](COCc2ccccc2)COCS1(=O)=O
Marked response: 85

Exam item: Any idea what viability at 6.25 µM was measured for CN1[C@H](COCc2ccc(-c3ccccc3)cc2)COCS1(=O)=O ?
Marked response: 89

----------
- Test system: SK-BR-3
- ASSAY NAME: Cytotoxicity against human SKBR3 cells assessed as cell viability at 25 uM after 72 hrs by MTS assay
- Assay type: functional
- ASSAY CONDITIONS: SK-BR-3, 72 h, read-out: Activity
Just a reminder that ties go to 0: only viability at 25 µM strictly below 80% counts as 1.

Exam item: Please check: viability at 25 µM for O=S1(=O)COC[C@@H](COCc2ccccc2)N1Cc1ccccc1 , strictly under 80% or not?
Marked response: 0

Exam item: Quick check: does CCCCCCCC/C=C\CCCCCCCCOC[C@@H]1COCS(=O)(=O)N1C have viability at 25 µM under 80%?
Marked response: 1

Exam item: Answer whether the compound O=S1(=O)COC[C@H](COCc2ccc(-c3ccc(CBr)cc3)cc2)N1 has viability at 25 µM strictly less than 80%
Marked response: 1

Exam item: Lab log: compare recorded viability at 25 µM with 80%; is it strictly lower for COc1cccc(COC[C@@H]2COCS(=O)(=O)N2Cc2ccccc2)c1 ?
Marked response: 0

Exam item: Please let me know if O=S1(=O)COC[C@@H](COCc2ccc(-c3ccc(CBr)cc3)cc2)N1 shows viability at 25 µM below 80%.
Marked response: 1

Exam item: Quick check: does CCCCCCCC/C=C\CCCCCCCCOC[C@@H]1COCS(=O)(=O)N1Cc1ccccc1 have viability at 25 µM under 80%?
Marked response: 0

Exam item: Problem: For the compound O=S1(=O)COC[C@@H](COCc2ccc(F)cc2)N1Cc1ccccc1 , is viability at 25 µM under 80%?
Marked response: 0

Exam item: Please state whether viability at 25 µM is below 80% for CN1[C@H](COCc2ccc3ccccc3c2)COCS1(=O)=O
Marked response: 1

Exam item: Hello, I'm reviewing records and need to know if viability at 25 µM of CN1[C@H](COCc2ccccc2)COCS1(=O)=O is below 80%. Could you check?
Marked response: 0

Exam item: State whether 80% exceeds viability at 25 µM recorded for O=C(OC[C@@H]1COCS(=O)(=O)N1Cc1ccccc1)c1ccccc1 .
Marked response: 0
